system: SW-620; assay: Cytotoxicity against human SW620 cells assessed as growth inhibition at 10 uM after 48 hrs by SRB assay; type: functional; conditions: SW-620, 48 h, read-out: GI
Observation type: inhibition of growth at 10 µM (%)

Molecule smiles	Obs value
O=C(Nc1ccccc1)Nc1ccc(NC2=NS(=O)(=O)c3ccccc32)cc1	-4
Cc1ccc(NC2=NS(=O)(=O)c3ccc(NC(=O)CCC(=O)O)cc32)cc1	1
O=C(Nc1ccc(Cl)cc1)Nc1ccc2c(c1)C(Nc1ccc(Cl)cc1Cl)=NS2(=O)=O	69
COc1ccc(NC(=O)Nc2ccc(NC3=NS(=O)(=O)c4ccccc43)cc2)cc1	-6
O=C(Nc1ccccc1)Nc1ccc(OC2=NS(=O)(=O)c3ccccc32)cc1	2
O=C(Nc1ccc(NC2=NS(=O)(=O)c3ccccc32)cc1)Nc1cccc(Br)c1	-2
O=C(Nc1ccc(OC2=NS(=O)(=O)c3ccccc32)cc1)Nc1ccccc1Cl	-5

====

system: NCI-H322M; test: Cytotoxicity against human NCI-H322M cells assessed as growth inhibition at 10 uM after 48 hrs by SRB assay; format: functional; conditions: read-out: GI
Observation type: inhibition of growth at 10 µM (%)

Molecule smiles	System under test	Value unit	Obs value
O=C(Nc1ccccc1)Nc1ccc(NC2=NS(=O)(=O)c3ccccc32)cc1	NCI-H322M	%	-8
O=C(Nc1ccc(Cl)cc1)Nc1ccc2c(c1)C(Nc1ccc(Cl)cc1Cl)=NS2(=O)=O	NCI-H322M	%	27
O=C(Nc1ccc(NC2=NS(=O)(=O)c3ccccc32)cc1)Nc1cccc(Br)c1	NCI-H322M	%	29
Cc1ccc(NC2=NS(=O)(=O)c3ccc(NC(=O)CCC(=O)O)cc32)cc1	NCI-H322M	%	2
COc1ccc(NC(=O)Nc2ccc(NC3=NS(=O)(=O)c4ccccc43)cc2)cc1	NCI-H322M	%	0
O=C(Nc1ccc(OC2=NS(=O)(=O)c3ccccc32)cc1)Nc1ccccc1Cl	NCI-H322M	%	2
O=C(Nc1ccccc1)Nc1ccc(OC2=NS(=O)(=O)c3ccccc32)cc1	NCI-H322M	%	5

====

test: Partition coefficient, log P of the compound; format: physicochemical; settings: octanol/water

Molecule smiles	logP
CCOC(=O)C(=CNc1ccc2c(c1)C(Nc1ccc(Cl)cc1)=NS2(=O)=O)C(=O)OCC	2.39
O=C(Nc1ccccc1)Nc1ccc(OC2=NS(=O)(=O)c3ccccc32)cc1	2.89
O=C(Nc1ccc(Cl)cc1)Nc1ccc2c(c1)C(Nc1ccc(Cl)cc1Cl)=NS2(=O)=O	4.24
O=C(Nc1ccc(Br)cc1)Nc1ccc(OC2=NS(=O)(=O)c3ccccc32)cc1	3.64
O=C(O)CCC(=O)Nc1ccc2c(c1)C(Nc1cccc(Br)c1)=NS2(=O)=O	1.26
CCOC(=O)C(=CNc1ccc2c(c1)C(Nc1cccc(Br)c1)=NS2(=O)=O)C(=O)OCC	2.48
Cc1ccc(NC2=NS(=O)(=O)c3ccc(NC(=O)CCC(=O)O)cc32)cc1	1
O=C(Nc1ccccc1)Nc1ccc(NC2=NS(=O)(=O)c3ccccc32)cc1	2.23
O=C(Nc1ccccc1)Nc1ccc2c(c1)C(Nc1ccc(Cl)cc1Cl)=NS2(=O)=O	3.57
COc1ccc(NC(=O)Nc2ccc(NC3=NS(=O)(=O)c4ccccc43)cc2)cc1	2.99

====

test system: ACHN; assay: Cytotoxicity against human ACHN cells assessed as growth inhibition at 10 uM after 48 hrs by SRB assay; format: functional; conditions: read-out: GI
Quick list: inhibition of growth at 10 µM per entry.

Molecule smiles	inhibition of growth at 10 µM / %
O=C(Nc1ccc(Cl)cc1)Nc1ccc2c(c1)C(Nc1ccc(Cl)cc1Cl)=NS2(=O)=O	85
O=C(Nc1ccc(NC2=NS(=O)(=O)c3ccccc32)cc1)Nc1cccc(Br)c1	3
COc1ccc(NC(=O)Nc2ccc(NC3=NS(=O)(=O)c4ccccc43)cc2)cc1	-3
Cc1ccc(NC2=NS(=O)(=O)c3ccc(NC(=O)CCC(=O)O)cc32)cc1	-5
O=C(Nc1ccc(OC2=NS(=O)(=O)c3ccccc32)cc1)Nc1ccccc1Cl	21
O=C(Nc1ccccc1)Nc1ccc(NC2=NS(=O)(=O)c3ccccc32)cc1	-8
O=C(Nc1ccccc1)Nc1ccc(OC2=NS(=O)(=O)c3ccccc32)cc1	12

====

tested on: SR; test: Cytotoxicity against human SR cells assessed as growth inhibition at 10 uM after 48 hrs by SRB assay; format: functional; settings: read-out: GI
Kind request: treat 30% as inclusive, so inhibition of growth at 10 µM at 30% or higher is satisfied, anything lower is not satisfied.

Molecule smiles	Class assignment
O=C(Nc1ccc(NC2=NS(=O)(=O)c3ccccc32)cc1)Nc1cccc(Br)c1	not satisfied
O=C(Nc1ccc(Cl)cc1)Nc1ccc2c(c1)C(Nc1ccc(Cl)cc1Cl)=NS2(=O)=O	satisfied
COc1ccc(NC(=O)Nc2ccc(NC3=NS(=O)(=O)c4ccccc43)cc2)cc1	not satisfied
O=C(Nc1ccccc1)Nc1ccc(OC2=NS(=O)(=O)c3ccccc32)cc1	satisfied
Cc1ccc(NC2=NS(=O)(=O)c3ccc(NC(=O)CCC(=O)O)cc32)cc1	not satisfied
O=C(Nc1ccccc1)Nc1ccc(NC2=NS(=O)(=O)c3ccccc32)cc1	not satisfied
O=C(Nc1ccc(OC2=NS(=O)(=O)c3ccccc32)cc1)Nc1ccccc1Cl	not satisfied

====

system: T47D; experiment: Cytotoxicity against human T47D cells assessed as growth inhibition at 10 uM after 48 hrs by SRB assay; assay type: functional; conditions: read-out: GI
Label rule met when inhibition of growth at 10 µM is at or above 20%; otherwise label rule not met.

Molecule smiles	Class assignment
O=C(Nc1ccc(Cl)cc1)Nc1ccc2c(c1)C(Nc1ccc(Cl)cc1Cl)=NS2(=O)=O	rule met
Cc1ccc(NC2=NS(=O)(=O)c3ccc(NC(=O)CCC(=O)O)cc32)cc1	rule not met
O=C(Nc1ccc(NC2=NS(=O)(=O)c3ccccc32)cc1)Nc1cccc(Br)c1	rule met
O=C(Nc1ccccc1)Nc1ccc(OC2=NS(=O)(=O)c3ccccc32)cc1	rule met
O=C(Nc1ccccc1)Nc1ccc(NC2=NS(=O)(=O)c3ccccc32)cc1	rule not met
O=C(Nc1ccc(OC2=NS(=O)(=O)c3ccccc32)cc1)Nc1ccccc1Cl	rule not met
COc1ccc(NC(=O)Nc2ccc(NC3=NS(=O)(=O)c4ccccc43)cc2)cc1	rule not met

====

test system: NCI-H226; experiment: Cytotoxicity against human NCI-H226 cells assessed as growth inhibition at 10 uM after 48 hrs by SRB assay; type: functional; settings: NCI-H226, 48 h, read-out: GI

Molecule smiles	inhibition of growth at 10 µM, %
Cc1ccc(NC2=NS(=O)(=O)c3ccc(NC(=O)CCC(=O)O)cc32)cc1	13
COc1ccc(NC(=O)Nc2ccc(NC3=NS(=O)(=O)c4ccccc43)cc2)cc1	-3
O=C(Nc1ccc(NC2=NS(=O)(=O)c3ccccc32)cc1)Nc1cccc(Br)c1	20
O=C(Nc1ccc(Cl)cc1)Nc1ccc2c(c1)C(Nc1ccc(Cl)cc1Cl)=NS2(=O)=O	63
O=C(Nc1ccccc1)Nc1ccc(OC2=NS(=O)(=O)c3ccccc32)cc1	20
O=C(Nc1ccc(OC2=NS(=O)(=O)c3ccccc32)cc1)Nc1ccccc1Cl	25
O=C(Nc1ccccc1)Nc1ccc(NC2=NS(=O)(=O)c3ccccc32)cc1	10
